All values here come from paper PMC9713320.

Target: FLT4 (VEGFR3) (Homo sapiens)
Sequence (P35916 25-1363): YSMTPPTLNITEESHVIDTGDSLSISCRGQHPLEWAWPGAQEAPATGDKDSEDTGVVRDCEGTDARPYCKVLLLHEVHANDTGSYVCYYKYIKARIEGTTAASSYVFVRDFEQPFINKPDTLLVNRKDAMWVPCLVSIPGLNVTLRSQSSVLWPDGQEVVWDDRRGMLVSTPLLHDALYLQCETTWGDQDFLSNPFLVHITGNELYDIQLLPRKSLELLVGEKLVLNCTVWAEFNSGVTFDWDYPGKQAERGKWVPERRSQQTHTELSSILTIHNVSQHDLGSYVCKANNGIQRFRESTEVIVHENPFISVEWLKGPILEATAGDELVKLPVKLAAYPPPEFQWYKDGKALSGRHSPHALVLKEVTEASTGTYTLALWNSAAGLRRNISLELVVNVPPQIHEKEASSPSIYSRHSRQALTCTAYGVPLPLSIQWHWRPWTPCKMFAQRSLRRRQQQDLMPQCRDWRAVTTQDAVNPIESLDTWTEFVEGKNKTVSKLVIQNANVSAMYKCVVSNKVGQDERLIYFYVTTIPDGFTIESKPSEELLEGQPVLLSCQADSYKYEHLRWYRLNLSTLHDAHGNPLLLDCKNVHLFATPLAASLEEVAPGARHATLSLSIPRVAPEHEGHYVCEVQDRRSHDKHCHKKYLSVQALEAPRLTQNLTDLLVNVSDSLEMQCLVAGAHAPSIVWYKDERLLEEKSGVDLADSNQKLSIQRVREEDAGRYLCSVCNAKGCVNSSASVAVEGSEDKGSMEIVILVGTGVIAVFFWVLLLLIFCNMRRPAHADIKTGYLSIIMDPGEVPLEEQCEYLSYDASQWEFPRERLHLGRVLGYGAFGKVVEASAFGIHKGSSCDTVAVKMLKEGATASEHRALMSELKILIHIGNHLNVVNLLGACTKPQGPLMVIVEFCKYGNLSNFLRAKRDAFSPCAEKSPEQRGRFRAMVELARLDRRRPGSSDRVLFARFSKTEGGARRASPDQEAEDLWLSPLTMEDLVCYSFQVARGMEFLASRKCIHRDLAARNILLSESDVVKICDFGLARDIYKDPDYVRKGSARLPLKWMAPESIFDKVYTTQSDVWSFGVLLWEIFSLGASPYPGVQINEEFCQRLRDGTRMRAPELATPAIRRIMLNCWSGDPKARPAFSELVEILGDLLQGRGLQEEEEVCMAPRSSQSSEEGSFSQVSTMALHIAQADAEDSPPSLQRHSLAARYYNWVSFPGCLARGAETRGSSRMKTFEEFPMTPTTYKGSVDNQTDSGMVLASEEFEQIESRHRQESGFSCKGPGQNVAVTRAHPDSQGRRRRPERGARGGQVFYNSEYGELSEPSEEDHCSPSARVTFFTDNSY
Metric name: IC50

Find IC50 (FLT4 (VEGFR3) (Homo sapiens)) for the entry Cn1c(N/N=C/c2ccc(OCc3cn(Cc4ccc(Br)cc4)nn3)cc2)nc2ccccc2c1=O 5.01 µM
